target: human glucagon receptor (human, UniProt P47871); test: cell-based or functional assay
Starred links: 1 amine or outer side, 2 acyl side, 3 side chain; linkers in the order of their positions; H or OH if unused. Non-standard residues stand in square brackets, D forms with d. Groups on a side chain read outwards from the residue. No end group written: not given here. *: point of attachment. C20 diacid = O=C(O)CCCCCCCCCCCCCCCCCCC(=O)*; C18 diacid = O=C(O)CCCCCCCCCCCCCCCCC(=O)*; γGlu = O=C(O)[C@H](CCC(=O)[*:2])N[*:1]; αMeF = C[C@](N)(Cc1ccccc1)C(=O)O; (PEG)2 = polyethylene glycol 2; PEG4 = NCCOCCOCCOCCOCCC(=O)O; AEEA = NCCOCCOCC(=O)O; Aib = CC(C)(N)C(=O)O
For each record, write down the corresponding hGluc-R EC50 (pM).
Write the answer as a number in pM, unit excluded.

Returns the measured hGluc-R EC50 (pM) for the input binder. Input: H[Aib]HGS[αMeF]TSDVSK[αMeF]LDSRAAKD[αMeF]VQWIANT-NH2 (not fully specified (residue 20); also: X13: αMePhe or Y (table)) [Peptide 289]
148

Now consider H[Aib]HGS[αMeF]TSDVSK[αMeF]LDSRAAK([AEEA-AEEA-γGlu-C18 diacid])D[αMeF]VQ[Aib]IANT-NH2 [Peptide 284] and answer again.
119

Now consider H[Aib]HGS[αMeF]TSDVSK[αMeF]LDSRAAK([AEEA-γGlu-AEEA-γGlu-C18 diacid])D[αMeF]VQ[Aib]IANT-NH2 [Peptide 260] and answer again.
76.9

Now consider H[Aib]HGS[αMeF]TSDVSK[Aib]LDSRAAK([AEEA-AEEA-γGlu-γGlu-C20 diacid])D[αMeF]VQ[Aib]IANT-NH2 [Peptide 295] and answer again.
17100

Now consider H[Aib]HGS[αMeF]TSDVSKYLDSRAAKDFVQWIANT-NH2 (not fully specified (residue 20)) [Peptide 292] and answer again.
20.4

Now consider H[Aib]HGS[αMeF]TSDVSK[αMeF]LDSRAAK([AEEA-AEEA-γGlu-C20 diacid])D[αMeF]VQ[Aib]IANT-NH2 [Peptide 280] and answer again.
155

Now consider H[Aib]HGS[αMeF]TSDVSK[αMeF]LDSRAAKD[αMeF]VQ[Aib]IANT-NH2 (not fully specified (residue 20)) [Peptide 230] and answer again.
37.1

Now consider H[Aib]HGS[αMeF]TSDVSKYLDSRAAK([AEEA-AEEA-γGlu-C18 diacid])D[αMeF]VQ[Aib]IANT-NH2 (not fully specified; also: X13: αMePhe or Y (table)) [Peptide 286] and answer again.
53

Now consider H[Aib]HGS[αMeF]TSDVSK[αMeF]LDSR[Aib]AK([γGlu-C18 diacid])DFVESIANT-NH2 [Peptide 254] and answer again.
125

Now consider H[Aib]HGS[αMeF]TSDVSK[αMeF]LDSRAAK([PEG4-γGlu-C20 diacid])D[αMeF]VQ[Aib]IANT-NH2 [Peptide 267] and answer again.
128

Now consider H[Aib]HGS[αMeF]TSDVSK[αMeF]LDSRAAK([AEEA-AEEA-γGlu-γGlu-C20 diacid])D[αMeF]VQ[Aib]IANT-OH [Peptide 304] and answer again.
687

Now consider H[Aib]HGS[αMeF]TSDVSK[αMeF]LDSRAAKDFVQ[Aib]IANT-NH2 (not fully specified (residue 20)) [Peptide 222] and answer again.
244

Now consider H[Aib]QGTFTSDVSK[αMeF]LDSRAAK([AEEA-AEEA-γGlu-C18 diacid])DFVQWIANT-NH2 (not fully specified) [Peptide 318] and answer again.
12000

Now consider H[Aib]HGS[αMeF]TSDVSK[αMeF]LDSRAAK([(PEG)2-(PEG)2-γGlu-γGlu-C20 diacid])D[αMeF]VQ[Aib]IANT-NH2 [Peptide 264] and answer again.
297

Now consider H[Aib]HGS[αMeF]TSDVSK[αMeF]LDSRAAK([AEEA-C20 diacid])D[αMeF]VQ[Aib]IANT-NH2 [Peptide 278] and answer again.
83.5

Now consider H[Aib]HGS[αMeF]TSDVSK[αMeF]LDSRAAK([γGlu-γGlu-C20 diacid])D[αMeF]VQ[Aib]IANT-NH2 [Peptide 275] and answer again.
175

Now consider HSHGS[αMeF]TSDVSK[αMeF]LDSRAAK([AEEA-AEEA-γGlu-C18 diacid])D[αMeF]VQ[Aib]IANT-NH2 [Peptide 285] and answer again.
87
